- System: nanobacteria
- assay.comment: Antibiotic susceptibility of nanobacteria, Minimal Inhibition Concentration (MIC) in 96-well plates
- Assay type: cell-based
measurement.type: Kind of antinanobacterial effect in the in vitro test (in words)

[[record]]
compound = "O=P(O)(O)C(Cl)(Cl)P(=O)(O)O [Chlodronate]"
test_system = "nanobacteria"
obs_value = "bacteriocidic effect"

[[record]]
compound = "CC(=O)Oc1ccccc1C(=O)O"
test_system = "nanobacteria"
obs_value = "weak"

[[record]]
compound = "CC(O)(P(=O)(O)O)P(=O)(O)O [Ethidronate]"
test_system = "nanobacteria"
obs_value = "bacteriocidic effect"

